System: HEK-293T
EXPERIMENT_SUMMARY: Incucyte cell viability with HEK293T; also: filed as whole numbers so only -1 and 0 and 1 occur
Assay type: toxicity, cell-based
DETAILS: human, 12 h, 10 µM, compound concentration 10 uM, replicate number 1, timepoint 12 hours
Parameter: Growth Rate. Scope: all listed entries.
PROPERTY_MEASURED: Growth Rate

{"COMPOUND": "CC[C@@H]1C(=O)N(C)c2cnc(Nc3ccc(C(=O)NC4CCN(C)CC4)cc3OC)nc2N1C1CCCC1 [BI-2536]", "MEASURED_ON": "HEK-293T", "DATA_VALUE": 0}
{"COMPOUND": "CN1CCN(Cc2ccc(-c3cnc4[nH]cc(-c5ccc6[nH]ccc6c5)c4c3)cc2)CC1", "MEASURED_ON": "HEK-293T", "DATA_VALUE": 0}
{"COMPOUND": "COc1cc(N2CCC(O)CC2)ccc1Nc1cc(Nc2ccccc2S(=O)(=O)C(C)C)c2cc[nH]c2n1", "MEASURED_ON": "HEK-293T", "DATA_VALUE": 0}
{"COMPOUND": "CN(c1cc(C(F)(F)F)nc(OCCC(=O)O)n1)c1cccc2c1CCC2", "MEASURED_ON": "HEK-293T", "DATA_VALUE": 1}
{"COMPOUND": "Cl.NC[C@@H]1O[C@H](C23CC4CC(CC(C4)C2)C3)Cc2c1ccc(O)c2O", "MEASURED_ON": "HEK-293T", "DATA_VALUE": 0}
{"COMPOUND": "CCCCC#Cc1nc(NC)c2ncn([C@@H]3O[C@H](CO)[C@@H](O)[C@H]3O)c2n1", "MEASURED_ON": "HEK-293T", "DATA_VALUE": 0}
{"COMPOUND": "C/C(=C/C=C/C(C)=C/C(=O)O)c1cc(C(C)(C)C)cc(C(C)(C)C)c1OCC(F)F", "MEASURED_ON": "HEK-293T", "DATA_VALUE": 0}
{"COMPOUND": "c1cc(CN2CCCNCCNCCCNCC2)ccc1CN1CCCNCCNCCCNCC1 [PLERIXAFOR]", "MEASURED_ON": "HEK-293T", "DATA_VALUE": 0}
{"COMPOUND": "C[C@@H](N)Cc1c[nH]cn1.Cl.Cl", "MEASURED_ON": "HEK-293T", "DATA_VALUE": 1}
{"COMPOUND": "COc1ccc2c(c1)O[C@H](c1ccc(OC)c(OC)c1)C[C@@H]2NC(=O)C1(c2ccc3c(c2)OC(F)(F)O3)CC1 [A-1596584]", "MEASURED_ON": "HEK-293T", "DATA_VALUE": 0}

====

Test system: HEK-293T
EXPERIMENT_SUMMARY: Multiplex assay against HEK293T
Assay type: toxicity, cell-based
DETAILS: human, 48 h, 1 µM, compound concentration 1 uM, replicate 1
Parameter: Population Pyknosed Nuclei (%). Scope: all listed entries.

{"COMPOUND": "CN(c1cc(C(F)(F)F)nc(OCCC(=O)O)n1)c1cccc2c1CCC2", "MEASURED_ON": "HEK-293T", "DISPLAY_UNIT": "%", "Population Pyknosed Nuclei (%)": 41}
{"COMPOUND": "CC(C)[C@H](CO)Nc1nc(Nc2cccc(Cl)c2)c2ncn(C(C)C)c2n1 [PURVALANOLA]", "MEASURED_ON": "HEK-293T", "DISPLAY_UNIT": "%", "Population Pyknosed Nuclei (%)": 40}
{"COMPOUND": "CCCCN(CC)c1nc(C)nc2c1c(C)cn2-c1c(C)cc(C)cc1C.Cl", "MEASURED_ON": "HEK-293T", "DISPLAY_UNIT": "%", "Population Pyknosed Nuclei (%)": 32}
{"COMPOUND": "C=CC(=O)Nc1cc(-n2c(=O)ccc3cnc4ccc(-c5ccc(NS(C)(=O)=O)cc5)cc4c32)ccc1C", "MEASURED_ON": "HEK-293T", "DISPLAY_UNIT": "%", "Population Pyknosed Nuclei (%)": 60}
{"COMPOUND": "Cc1c(P(=S)(c2ccccc2)c2ccccc2)n2ccccc2[n+]1C/C=C/c1ccccc1.[Br-]", "MEASURED_ON": "HEK-293T", "DISPLAY_UNIT": "%", "Population Pyknosed Nuclei (%)": 73}
{"COMPOUND": "CCCCCNC(=N)N/N=C/c1c[nH]c2ccc(OC)cc12.O=C(O)/C=C\\C(=O)O [TEGASEROD MALEATE]", "MEASURED_ON": "HEK-293T", "DISPLAY_UNIT": "%", "Population Pyknosed Nuclei (%)": 12}
{"COMPOUND": "CN1C(=O)[C@@H](NC(=O)c2cc3ccccc3[nH]2)N=C(c2ccccc2)c2ccccc21 [DEVAZEPIDE]", "MEASURED_ON": "HEK-293T", "DISPLAY_UNIT": "%", "Population Pyknosed Nuclei (%)": 55}
{"COMPOUND": "Cc1ccc(S(=O)(=O)NC2c3ccccc3Oc3ccccc32)cc1", "MEASURED_ON": "HEK-293T", "DISPLAY_UNIT": "%", "Population Pyknosed Nuclei (%)": 35}
{"COMPOUND": "CC(/C=C1\\SC(=S)N(CCCC(=O)Nc2ccc(C(=O)O)c(O)c2)C1=O)=C\\c1ccccc1", "MEASURED_ON": "HEK-293T", "DISPLAY_UNIT": "%", "Population Pyknosed Nuclei (%)": 40}
{"COMPOUND": "C[C@@H](Oc1cc(-n2cnc3ccc(CN4CCN(C)CC4)cc32)sc1C(N)=O)c1ccccc1C(F)(F)F [GSK-461364]", "MEASURED_ON": "HEK-293T", "DISPLAY_UNIT": "%", "Population Pyknosed Nuclei (%)": 59}
